# maps each entry to its Binding to Protein S in CaCl2 (OD)
# measured.on: T1, human Protein S (human, UniProt P07225 42-676)
# T1 construct: also called ProS; ProS1
# T1 sequence: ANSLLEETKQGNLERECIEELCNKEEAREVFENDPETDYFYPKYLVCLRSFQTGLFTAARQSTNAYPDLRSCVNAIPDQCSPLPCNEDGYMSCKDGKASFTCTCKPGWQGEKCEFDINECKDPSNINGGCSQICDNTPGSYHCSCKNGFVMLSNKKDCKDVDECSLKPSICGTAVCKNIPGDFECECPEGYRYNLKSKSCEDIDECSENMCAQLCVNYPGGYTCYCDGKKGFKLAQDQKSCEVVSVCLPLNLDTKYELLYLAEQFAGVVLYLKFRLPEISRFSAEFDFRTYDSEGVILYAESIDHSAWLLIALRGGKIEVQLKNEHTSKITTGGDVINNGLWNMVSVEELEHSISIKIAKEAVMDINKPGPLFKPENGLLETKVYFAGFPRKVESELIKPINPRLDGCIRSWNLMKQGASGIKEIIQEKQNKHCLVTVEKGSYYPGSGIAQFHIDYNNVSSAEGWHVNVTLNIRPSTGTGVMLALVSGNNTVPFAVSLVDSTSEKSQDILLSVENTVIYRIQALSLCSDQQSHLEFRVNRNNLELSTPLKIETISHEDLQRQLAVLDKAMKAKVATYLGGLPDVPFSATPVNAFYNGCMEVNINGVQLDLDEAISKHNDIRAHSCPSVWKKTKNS
# assay.remarks: ELISA; plate coated with human Protein S; 1 µg/ml antibody; 1 mM calcium chloride
property: Binding to Protein S in CaCl2 (OD)

binder="Antibody 35 (antibody, V domains shown, Human variable region with rat Fc) VH: QLQLQESGPGLVKPSETLSLTCTVSGGSITNSNYYWGWIRQPPGKGLEWIGSVYYSGTTYYNPSLKSRVTISVDPSKNQFSLKLSSVTAADTAVYYCVRESESYYYYGSDVWGQGTTVTVSS VL: DIQMTQSPSSLSASVGDRVTITCRASQGINNYLAWFQQKPGKAPKSLIYAASSLQSGVPSKFSGSGSGTDFTLTISSLQPEDFATYYCQQYNSYPRTFGQGTKVEIK" property="Binding to Protein S in CaCl2 (OD)" units_symbol=OD obs_value=0.96
binder="Antibody 14 (antibody, V domains shown, Human variable region with rat Fc) VH: QVQLQESGPGLVKPSQTLSLTCTVSGGSITSDGYHWSWIRQYPGKGLDWIGYIYYTGNTYYNPSLKSRVTISVGTSQNQFSLKLISVTAADTAVYYCARRLSTGPYFDYWGQGTLVTVSS VL: QSALTQPASVSGSPGQSITISCTGTSSDVGGYEFVSWYQHHPGKAPKLMIYDVSSRPSGVSNRFSGSKSGNTASLTISGLQAEDEADYYCSSYTRSSTVVFGGGARLTVL" property="Binding to Protein S in CaCl2 (OD)" units_symbol=OD obs_value=2.03
